These entries and their values trace back to paper PMC5669405.

- system: Aβ aggregates (Homo sapiens)
- Sequence (P05067 672-713): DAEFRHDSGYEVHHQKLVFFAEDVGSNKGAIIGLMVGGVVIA
- experimental protocol: Thioflavin T fluorescence competition assay
measurement type: pIC50
Expect pIC50 as a plain number equal to -log10 of the molar concentration.

// map COC(=O)CCC(C(=O)C=Cc1ccc(O)c(OC(F)(F)F)c1)C(=O)C=Cc1ccc(O)c(OC(F)(F)F)c1 (stereo not shown) [SY5] to recorded pIC50 (system: Aβ aggregates (Homo sapiens))
6.36

====

- experimental protocol: MTT cell viability, compound alone
- Format: cell-based, human
- measurement conditions: human, SH-SY5Y neuroblastoma cells
measurement type: viability at 24 h, 0.9 µM (%)
Output spec: scalar in %, unitless text.

                                   compound           measurement_type  experimental_result
0  COc1cc(/C=C/C(=O)CC(=O)/C=C/c2ccc(O)c(OC)c2)ccc1O [Cur, Curcumin, reference compound]  viability at 24 h, 0.9 µM                 97.5

What viability at 24 h, 0.9 µM value was documented for this compound, COC(=O)CCC(C(=O)C=Cc1ccc(O)c(OC(F)(F)F)c1)C(=O)C=Cc1ccc(O)c(OC(F)(F)F)c1 (centres unmarked) ?
102

====

- System: SH-SY5Y cells
- experimental protocol: MTT cell viability, compound alone
- Assay type: cell-based, human
- measurement conditions: SH-SY5Y, 24 h, 0.9 µM compound; mean±SEM
measurement type: Viability C. Compound alone (%)
Output spec: scalar in %, unitless text.

Some entries whose results are on file:
>>> df
                                   molecule         system  experimental_result
0  COC(=O)CCC(C(=O)C=Cc1ccc(O)c(F)c1)C(=O)C=Cc1ccc(O)c(F)c1 (centres unmarked)  SH-SY5Y cells                 91.6
1  COC(=O)CCC(C(=O)C=Cc1ccc(O)c(OC)c1)C(=O)C=Cc1ccc(O)c(OC)c1 (centres unmarked)  SH-SY5Y cells                 97.9
2  CCC(C(=O)C=Cc1ccc(O)c(OC(F)(F)F)c1)C(=O)C=Cc1ccc(O)c(OC(F)(F)F)c1 (centres unmarked)  SH-SY5Y cells                 93.4
3  COC(=O)COc1ccc(C=CC(=O)CC(=O)C=Cc2ccc(O)c(OC)c2)cc1OC  SH-SY5Y cells                 93.7
4  COc1ccc(C=CC(=O)C(C)C(=O)C=Cc2ccc(OC)c(OC(F)(F)F)c2)cc1OC(F)(F)F (centres unmarked)  SH-SY5Y cells                 69.5
5  COc1ccc(C=CC(=O)C(CCC(=O)OC(C)(C)C)C(=O)C=Cc2ccc(OC)c(F)c2)cc1F (centres unmarked)  SH-SY5Y cells                 88.6

For the next question, use this molecule.
// map COC(=O)CCC(C(=O)C=Cc1ccc(O)c(OC(F)(F)F)c1)C(=O)C=Cc1ccco1 (centres unmarked) to recorded Viability C. Compound alone (system: SH-SY5Y cells)
93.0

====

- Test system: SH-SY5Y cells
- experimental protocol: MTT cell viability, compound alone
- Type: cell-based, human
- measurement conditions: SH-SY5Y, 24 h, 0.9 µM compound; mean±SEM
Reported Viability C. Compound alone values for a set of compounds
Output spec: scalar in %, unitless text.

Some entries whose results are on file:
>>> df
                                   compound  reading_unit  experimental_result
0  O=C(C=Cc1ccc(O)c(OC(F)(F)F)c1)C(CCOC1CCCCO1)C(=O)C=Cc1ccc(O)c(OC(F)(F)F)c1 (stereo not shown)             %                 97.8
1  COC(=O)CCC(C(=O)C=Cc1cc(F)c(O)c(F)c1)C(=O)C=Cc1cc(F)c(O)c(F)c1 (stereo not shown)             %                 94.1
2  COc1cc(C=CC(=O)CC(=O)C=Cc2cc(C(F)(F)F)cc(C(F)(F)F)c2)ccc1O             %                 91.6
3  COc1ccc(C=CC(=O)CC(=O)C=Cc2ccc(OC)c(F)c2)cc1F             %                 94.2
4  COCOc1ccc(C=CC(=O)C(CCC(=O)OC(C)(C)C)C(=O)C=Cc2ccc(OCOC)c(OC(F)(F)F)c2)cc1OC(F)(F)F (stereo not shown)             %                 95.8
5  COc1cc(C=CC(=O)CC(=O)C=Cc2ccc(O)c(OC(F)(F)F)c2)ccc1O             %                101.4

What Viability C. Compound alone value was documented for this compound, O=C(C=Cc1ccc(O)c(OC(F)(F)F)c1)C(CCOCCOCCOCCOC1CCCCO1)C(=O)C=Cc1ccc(O)c(OC(F)(F)F)c1 (stereo not shown) ?
98.5
